target-system: T1, human programmed cell death protein 1 (hPD-1) C93S (aa 24-167) (Homo sapiens, UniProt Q15116, C93S)
T1 construct: made as a fusion with a TEV site and human Fc; the Fc was cut off with TEV protease; source: Expi293F, purified (Protein A, TEV cleavage of Fc, SEC; monomer fractions); not shown: Fc (human), C-terminal, cleaved
T1 sequence (Q15116 24-167 C93S): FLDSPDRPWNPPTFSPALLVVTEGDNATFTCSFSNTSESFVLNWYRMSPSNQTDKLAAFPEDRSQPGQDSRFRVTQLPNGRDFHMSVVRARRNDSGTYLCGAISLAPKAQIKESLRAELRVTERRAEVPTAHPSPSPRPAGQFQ
test: SPR; Carterra LSA; Fab from the ammonium sulfate precipitate of the culture supernatant immobilised on a NiHC200M chip; hPD-1 (1-1024 nM) or mPD-1-Fc (4-1024 nM) as analyte, fourfold dilution series, no regeneration; HBS-EP pH 7.4, 25 °C; medians over the spots of a construct, KD = koff/kon
assay-conditions: one partner purified
For each record, write down the corresponding kon.
Write the value in M⁻¹ s⁻¹ as a bare number.

Record summary for toripalimab Fab H.D113A (Fab, V domains shown, heavy chain of Sm3 with this change; numbers count from the chain's first residue; as the light chain of Sm3; source: Brevibacillus, culture supernatant (ammonium sulfate precipitate); not shown: 6xHis, C-terminal, kept; 6xHN, C-terminal, kept) VH: QGQLVQSGAEVKKPGASVKVSCKASGYTFTDYEMHWVRQAPIHGLEWIGVIESETGGTAYNQKFKGRVTITADKSTSTAYMELSSLRSEDTAVYYCAREGITTVATTYYWYFAVWGQGTTVTVSS VL: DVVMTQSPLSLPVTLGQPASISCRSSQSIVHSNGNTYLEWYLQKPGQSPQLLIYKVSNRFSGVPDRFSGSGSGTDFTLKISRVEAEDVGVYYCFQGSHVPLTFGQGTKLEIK : reported kon = 5600

Briefly, kon measured for toripalimab Fab H.Q62A (Fab, V domains shown, heavy chain of Sm3 with this change; numbers count from the chain's first residue; as the light chain of Sm3; source: Brevibacillus, culture supernatant (ammonium sulfate precipitate); not shown: 6xHis, C-terminal, kept; 6xHN, C-terminal, kept) VH: QGQLVQSGAEVKKPGASVKVSCKASGYTFTDYEMHWVRQAPIHGLEWIGVIESETGGTAYNAKFKGRVTITADKSTSTAYMELSSLRSEDTAVYYCAREGITTVATTYYWYFDVWGQGTTVTVSS VL: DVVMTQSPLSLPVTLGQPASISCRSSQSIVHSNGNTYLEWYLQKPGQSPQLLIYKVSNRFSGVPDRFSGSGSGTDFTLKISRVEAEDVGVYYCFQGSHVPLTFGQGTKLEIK : 7730

Recorded kon (binder toripalimab Fab L.P100I (Fab, V domains shown, as the heavy chain of Sm3; light chain of Sm3 with this change; numbers count from the chain's first residue; source: Brevibacillus, culture supernatant (ammonium sulfate precipitate); not shown: 6xHis, C-terminal, kept; 6xHN, C-terminal, kept) VH: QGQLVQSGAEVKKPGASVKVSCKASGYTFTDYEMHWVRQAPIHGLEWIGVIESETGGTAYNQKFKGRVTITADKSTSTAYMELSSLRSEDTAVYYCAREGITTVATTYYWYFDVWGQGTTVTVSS VL: DVVMTQSPLSLPVTLGQPASISCRSSQSIVHSNGNTYLEWYLQKPGQSPQLLIYKVSNRFSGVPDRFSGSGSGTDFTLKISRVEAEDVGVYYCFQGSHVILTFGQGTKLEIK ): 7200

binder toripalimab Fab L.L101M (Fab, V domains shown, as the heavy chain of Sm3; light chain of Sm3 with this change; numbers count from the chain's first residue; source: Brevibacillus, culture supernatant (ammonium sulfate precipitate); not shown: 6xHis, C-terminal, kept; 6xHN, C-terminal, kept) VH: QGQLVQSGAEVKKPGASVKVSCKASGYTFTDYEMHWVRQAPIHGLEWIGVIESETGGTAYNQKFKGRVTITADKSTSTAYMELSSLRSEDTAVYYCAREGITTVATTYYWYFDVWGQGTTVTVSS VL: DVVMTQSPLSLPVTLGQPASISCRSSQSIVHSNGNTYLEWYLQKPGQSPQLLIYKVSNRFSGVPDRFSGSGSGTDFTLKISRVEAEDVGVYYCFQGSHVPMTFGQGTKLEIK , kon observed: 9290

Lookup result for toripalimab Fab L.S57Y (Fab, V domains shown, as the heavy chain of Sm3; light chain of Sm3 with this change; numbers count from the chain's first residue; source: Brevibacillus, culture supernatant (ammonium sulfate precipitate); not shown: 6xHis, C-terminal, kept; 6xHN, C-terminal, kept) VH: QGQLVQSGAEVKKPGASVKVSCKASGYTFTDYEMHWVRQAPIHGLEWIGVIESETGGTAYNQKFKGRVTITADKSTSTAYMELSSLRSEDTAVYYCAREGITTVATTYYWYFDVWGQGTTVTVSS VL: DVVMTQSPLSLPVTLGQPASISCRSSQSIVHSNGNTYLEWYLQKPGQSPQLLIYKVYNRFSGVPDRFSGSGSGTDFTLKISRVEAEDVGVYYCFQGSHVPLTFGQGTKLEIK ; measured kon: 29500
